Where do the numbers come from? From ChEMBL document CHEMBL1156861.

Ratio Ki values, listed per item
Assay: Selectivity ratio of Ki for CB1 receptor to Ki for CB2 receptor
Write no unit; give the number alone.

Consider the reported Ratio Ki for these compounds:
* CCCCCCC(C)(C)c1cc(N)c2c(c1)OC(C)(C)[C@@H]1CCC(C)=C[C@@H]21 | 4
* CCCCCc1cc2c(c(SC)c1)[C@@H]1C=C(C)CC[C@H]1C(C)(C)O2 | 2
* CCCCCCC(C)(C)c1cc(C#N)c2c(c1)OC(C)(C)[C@@H]1CCC(C)=C[C@@H]21 | 13

IN: Any idea what Ratio Ki was measured for CCCCCCC(C)(C)c1cc(NS(C)(=O)=O)c2c(c1)OC(C)(C)[C@@H]1CCC(C)=C[C@@H]21 ?
OUT: 7

IN: Follow-up item: CCCCCCC(C)(C)c1cc(O)c2c(c1)OC(C)(C)[C@@H]1CCC(C)=C[C@@H]21
OUT: 1

IN: Check CCCCCCC(C)(C)c1cc(NC(=O)NC)c2c(c1)OC(C)(C)[C@@H]1CCC(C)=C[C@@H]21 too.
OUT: 1
